Target: human recombinant adrenergic α2A receptor (Homo sapiens, UniProt P08913)
Construct: expressed in transfected cells; host or cells: insect Sf9 cells
Sequence (P08913 whole entry): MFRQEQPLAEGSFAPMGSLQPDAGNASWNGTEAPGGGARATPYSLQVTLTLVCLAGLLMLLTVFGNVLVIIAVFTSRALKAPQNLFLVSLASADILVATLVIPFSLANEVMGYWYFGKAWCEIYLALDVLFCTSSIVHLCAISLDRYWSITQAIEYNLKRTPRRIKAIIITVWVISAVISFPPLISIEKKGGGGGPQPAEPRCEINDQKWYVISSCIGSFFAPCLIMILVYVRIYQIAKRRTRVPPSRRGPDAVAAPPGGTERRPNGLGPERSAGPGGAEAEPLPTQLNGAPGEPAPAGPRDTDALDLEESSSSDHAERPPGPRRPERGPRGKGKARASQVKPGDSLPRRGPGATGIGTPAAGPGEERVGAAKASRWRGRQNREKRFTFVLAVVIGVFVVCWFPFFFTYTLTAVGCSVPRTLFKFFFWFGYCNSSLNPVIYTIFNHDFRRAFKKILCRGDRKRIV
Test: Radioligand binding, adrenergic α2A ([3H]MK-912)
Conditions: compound at 0.1 μM; [3H]MK-912; repeat assays, each datapoint shown; read-out: Percentage inhibition of ligand binding, Adrenergic α2A
Returns one of yes or no; yes when inhibition at 0.1 µM is >= 20%.

// known answers, use as guide
- compound: "CN1CCc2c(c3cc(Cl)ccc3n2CCC(=O)OCC2CCCCC2)C1"
  systemUnderTest: "human recombinant adrenergic α2A receptor (Homo sapiens, UniProt P08913)"
  discreteLabel: "no"
- compound: "COc1ccc(C(O)Cn2c3c(c4cc(C)ccc42)CN(C)CC3)cc1OC (centres unmarked)"
  systemUnderTest: "human recombinant adrenergic α2A receptor (Homo sapiens, UniProt P08913)"
  discreteLabel: "no"
- compound: "Cc1cnc2c(c1)c1c(n2CC(O)c2ccncc2)CCN(C)C1 (centres unmarked)"
  systemUnderTest: "human recombinant adrenergic α2A receptor (Homo sapiens, UniProt P08913)"
  discreteLabel: "no"
- compound: "CN1CCc2c(c3cc(Cl)ccc3n2CC(C)(O)c2cccnc2)C1 (single isomer, unassigned) [31a]"
  systemUnderTest: "human recombinant adrenergic α2A receptor (Homo sapiens, UniProt P08913)"
  discreteLabel: "no"
- compound: "CC(O)c1ccc2c(c1)c1c(n2CC(O)c2ccncc2)CCN(C)C1 (centres unmarked)"
  systemUnderTest: "human recombinant adrenergic α2A receptor (Homo sapiens, UniProt P08913)"
  discreteLabel: "no"

Is inhibition at 0.1 µM at least 20%? Consider CN1CCc2c(c3cc(C(F)(F)F)ccc3n2CC(O)c2cccnc2)C1 (single isomer, unassigned) [59a]
no

Check this compound for inhibition at 0.1 µM at or above 20%: CN1CCc2c(n(CC(C)(O)c3cccnc3)c3ccc(Cl)cc23)C1 (single isomer, unassigned) [28a]
yes

Check the entry `Cc1ccc2c(c1)c1c(n2CCc2cccnc2)CCN(C)C1` : does inhibition at 0.1 µM equal or exceed 20%?
yes
